tested on: Quadruplex DNA; assay: Binding affinity to synthetic telomeric 26 G-quadruplex DNA assessed as residual binding at 60 uM after 4 mins by UV-Vis spectrophotometric analysis relative to control; format: nucleic-acid assay

# COMPOUND, Activity [%]
measured = [
    ("O=C1c2ccccc2C(=O)c2c1oc1c3c(ccc21)OCN(CCC1=CCCCC1)C3", 73),
    ("O=C1c2ccccc2C(=O)c2c1oc1c3c(ccc21)OCN(CC1CCCO1)C3 (stereo unspecified)", 78),
    ("O=C1c2ccccc2C(=O)c2c1oc1c3c(ccc21)OCN(CCCn1ccnc1)C3", 80),
    ("O=C1c2ccccc2C(=O)c2c1oc1c3c(ccc21)OCN(Cc1ccco1)C3", 86),
    ("CC(c1ccccc1)N1COc2ccc3c4c(oc3c2C1)C(=O)c1ccccc1C4=O (stereo unspecified)", 80),
    ("O=C1c2ccccc2C(=O)c2c1oc1c3c(ccc21)OCN(CC1CCS(=O)(=O)C1)C3 (stereo unspecified)", 75),
    ("O=C1c2ccccc2C(=O)c2c1oc1c3c(ccc21)OCN(Cc1ccccc1)C3", 80),
    ("CC(=O)c1c(C)oc2c1c1c(c3ccccc32)OCN(CCCN2CCOCC2)C1", 76),
    ("O=C1c2ccccc2C(=O)c2c1oc1c3c(ccc21)OCN(CCCN1CCOCC1)C3", 80),
    ("O=C1c2ccccc2C(=O)c2c1oc1c3c(ccc21)OCN(Cc1cccnc1)C3", 79),
    ("O=C1c2ccccc2C(=O)c2c1oc1c3c(ccc21)OCN(C1CCCCC1)C3", 86),
]

====

molecular target: Quadruplex DNA; assay: Binding affinity to Cy5-fluorescently labeled synthetic Telomeric 26 G-quadruplex DNA by microscale thermophoresis assay; type: nucleic-acid assay

# COMPOUND, Kd (µM)
rows = [
    ("CC(c1ccccc1)N1COc2ccc3c4c(oc3c2C1)C(=O)c1ccccc1C4=O (stereo unspecified)", 26),
]

====

tested on: Quadruplex DNA; assay: Binding affinity to synthetic c-Kit1 G-quadruplex DNA assessed as residual binding at 60 uM after 4 mins by UV-Vis spectrophotometric analysis relative to control; format: nucleic-acid assay
Attribute: Activity

# MOLECULE, Activity (%)
measured = [
    ("O=C1c2ccccc2C(=O)c2c1oc1c3c(ccc21)OCN(CC1CCS(=O)(=O)C1)C3 (stereo not drawn)", 72),
    ("O=C1c2ccccc2C(=O)c2c1oc1c3c(ccc21)OCN(C1CCCCC1)C3", 70),
    ("CC(=O)c1c(C)oc2c1c1c(c3ccccc32)OCN(CCCN2CCOCC2)C1", 75),
]

====

test system: Quadruplex DNA; test: Binding affinity to human TERT1 G-quadruplex DNA assessed as residual binding at 60 uM after 4 mins by UV-Vis spectrophotometric analysis relative to control; type: nucleic-acid assay
METRIC_NAME: Activity (%)

# COMPOUND, READOUT_NUMBER
measured = [
    ("O=C1c2ccccc2C(=O)c2c1oc1c3c(ccc21)OCN(CC1CCCO1)C3 (centres undefined)", 87),
    ("O=C1c2ccccc2C(=O)c2c1oc1c3c(ccc21)OCN(C1CCCCC1)C3", 74),
    ("CC(=O)c1c(C)oc2c1c1c(c3ccccc32)OCN(CCCN2CCOCC2)C1", 78),
    ("O=C1c2ccccc2C(=O)c2c1oc1c3c(ccc21)OCN(CC1CCS(=O)(=O)C1)C3 (centres undefined)", 76),
]

Cited source: ChEMBL document CHEMBL4330082
